Hey, just so you know, these numbers are from ChEMBL document CHEMBL1201862.

Tested on: Malme-3M
testProtocol: NCI tumour cell line growth inhibition, 48 h
Calls of active or inactive are those of the source. No stated cut-off is given here; in the data, active = GI50 up to about 1.1 µM and inactive = higher.
property: GI50

Example results:
COc1ccc(N2/C(=N/c3ccccc3)SC(=N/S(=O)(=O)c3ccccc3)/C2=N\S(=O)(=O)c2ccccc2)cc1	21 µM (inactive)
COc1ccc(N2C(=O)C3c4[nH]c5ccc(OCc6ccccc6)cc5c4C4CCC(C(C)(C)C)CC4C3C2=O)cc1 (stereo not drawn)	25.7 µM (inactive)

Next item in the queue.
Input COc1cccc2c(Nc3ccc(S(=O)(=O)N=C(N)N)cc3)c3ccc([N+](=O)[O-])cc3nc12 . Output GI50: 10.7 µM (inactive)

---

Tested on: OVCAR-5
testProtocol: NCI tumour cell line growth inhibition, 48 h
Calls of active or inactive are those of the source. No stated cut-off is given here; in the data, active = GI50 up to about 1.1 µM and inactive = higher.
Property: GI50; scope: individual compounds

Completed entries (count: 2):
Cc1cc(O)c2c(c1)C(O)(c1ccc3c(c1O)C(=O)c1c(O)cc(C)cc1C3(O)C1OC(CO)C(O)C(O)C1O)c1cccc(O)c1C2=O (centres undefined)	18.1 µM (inactive)
C[C@H]1NC(=O)C2CCCCN2C(=O)CN(C)C(=O)CNC(=O)C2CCCCN2C(=O)[C@@H](NC(=O)c2nc3ccccc3cc2O)[C@@H](C)NC(=O)C2CCCCN2C(=O)CN(C)C(=O)CNC(=O)[C@@H]2CCCCN2C(=O)C1NC(=O)c1nc2ccccc2cc1O (some centres undefined)	1.91 µM (inactive)

Recorded result, CC1(C)CCOC(=O)C(Cl)CC1Cl (centres undefined) , GI50: > 100 µM (inactive)

For CCN(CC)CC(C(=O)Nc1c(C)cccc1C)/C(C)=N\NC(=S)NN (centres undefined) the compound record lists GI50 as > 100 µM (inactive)

According to the records, this compound COC(=O)CN(CC(O)C(NC(C)=O)C(O)C=O)C(=O)OCc1ccccc1 (centres undefined) displays GI50 of > 100 µM (inactive)

Reported GI50 for Clc1ncc(C(Cl)(Cl)Cl)nc1-c1ccccc1 was 16.1 µM (inactive)

// sample Cc1ccc(N2C(=O)CC(=O)N(NC(=O)C(C)Oc3ccccc3C)C2=S)cc1 (centres undefined) , its GI50 was > 100 µM (inactive)

Lab note: CN(CCO)CCC1COc2ccccc2O1 (centres undefined) gave GI50 of > 10 µM (inactive)

Entry C[C@@H](CC(=O)OCc1ccccc1)OC1OC(COC(=O)C(C)(C)C)C(OC(=O)C(C)(C)C)C(OC(=O)C(C)(C)C)C1OC(=O)C(C)(C)C (some centres undefined) — recorded GI50 = > 100 µM (inactive)

Recorded result, COC1(c2cccs2)c2ccccc2C(OC)(c2cccs2)c2ccccc21 (centres undefined) , GI50: 44.4 µM (inactive)

Data point: COC(=O)c1c(OC)cccc1C(=O)O ; GI50 = > 100 µM (inactive)

Entry under test: Cc1ccc(-c2nc3ccccc3c(=O)n2NCC2(O)OCC(O)C(O)C2O)cc1 (centres undefined) . Its GI50 was > 100 µM (inactive)

# GI50 of CC1(C)CC(=O)c2c(nc3ccc4ccccc4c3c2-c2ccc(NC(=O)CCC(=O)Nc3ccc(-c4c5c(nc6ccc7ccccc7c46)CC(C)(C)CC5=O)cc3)cc2)C1 = > 100 µM (inactive)

Reported GI50 ( Cn1c(=O)c2c(no[n+]2[O-])c2ccccc21 ) = > 10 µM (inactive)

---

The following compounds are listed with their measured GI50 values.
Test system: A498
testProtocol: NCI tumour cell line growth inhibition, 48 h
The source made the active and inactive calls. Cut-off read from the data, not from the text of the source: active = GI50 up to about 1.1 µM and inactive = higher.

Examples with their reported GI50 follow.
Fc1ccc(C(OCCN2CCC3CCC(C2)N3C/C=C/c2cccnc2)c2ccc(F)cc2)cc1 (stereo not given)	14.3 µM (inactive)
CC1(C)CNC(=O)C2(/C=N/C(C)(C)CNC(=O)C3(/C=N/1)CCCO3)CCCO2 (stereo not given)	> 10 µM (inactive)
CCN(CC)C1C(=O)NC1C#Cc1ccccc1 (stereo not given)	> 100 µM (inactive)
COc1cc2c(cc1OC)C1c3ccccc3CCN1CC2 (stereo not given)	> 100 µM (inactive)
CC(=O)/C(C)=N/NC(=O)c1ccccc1O	47.9 µM (inactive)

Documented GI50 of C[C@@H](CC(=O)OCc1ccccc1)OC1OC(COC(=O)C(C)(C)C)C(OC(=O)C(C)(C)C)C(OC(=O)C(C)(C)C)C1OC(=O)C(C)(C)C (stereo not given in full) : > 100 µM (inactive)

GI50 for OC1CCC(C2C3CCCCC3C3CCCCC3C2C2CCC(O)CC2)CC1 (stereo not given) is 15.8 µM (inactive)

---

Test system: K562
testProtocol: NCI tumour cell line growth inhibition, 48 h
Active and inactive are the calls of the source. No stated cut-off is given here; in the data, active = GI50 up to about 1.1 µM and inactive = higher.
API: response.call in active, inactive

COc1cc(/C=C2/CCS(=O)(=O)c3ccc(C)cc3C2=O)cc(OC)c1OC	inactive

Tell me the assay call for N=C(N)N/N=C\c1c(-c2cccc([N+](=O)[O-])c2)nc2sccn12 please.
inactive

Which outcome was assigned to O=c1c2c3c(sc2nc2n1N=CN(c1ccc(Cl)cc1)C2)CCCC3 in this test?
inactive

Check the results log: what was the call for CCCN(CCC)C1CC(n2cc(C)c(=O)[nH]c2=O)OC1CO (stereo not given) ?
inactive

Call for entry N#Cc1cc2c(n(C3OC(CO)C(O)C(O)C3O)c1=S)CCCCCC2 (stereo not given) :
inactive

Outcome? C/C(=N\NC(=S)NCc1ccccc1)c1nc2cccnc2[nH]1
inactive

Fill in: this test's call for COc1cc2c[n+]3ccc4cc(OC)c(OC)cc4c3cc2cc1O is ___
inactive

What call does the record list for CCCCC/C(=N\c1[nH]cnc1C(N)=O)OCC ?
inactive

Give the logged outcome of this assay for the following molecule: COc1ccc2c(c1)CN1C(=N2)CSC1c1ccccc1Cl (stereo not given)
inactive

---

Consider the following molecules and their measured GI50 readings.
System: HT-29
testProtocol: NCI tumour cell line growth inhibition, 48 h
Activity calls are given as the source filed them. No stated cut-off is given here; in the data, active = GI50 up to about 1.1 µM and inactive = higher.

Some entries whose results are on file:
Cc1nnc2sc(N/N=C/c3ccccc3)nn12	> 100 µM (inactive)
c1ccc(CN2COc3c(ccc4c5c(ccc34)CN(Cc3ccccc3)CO5)C2)cc1	> 100 µM (inactive)
CN(C)c1ccc(/C=C/C(=O)c2ccccc2)cc1Br	19.7 µM (inactive)
CN1CCN(c2ncc3c(n2)sc2c(=O)n(-c4ccccc4)cnc23)CC1	> 100 µM (inactive)

GI50 recorded for this molecule, CN(CCO)CCC1COc2ccccc2O1 (stereo unspecified) , is > 10 µM (inactive)

Consider OC1(c2ccccc2)CSc2ncnn21 (stereo unspecified) . Its measured GI50 is > 100 µM (inactive)

---

Catalogue of GI50 readings, one per entry.
System: OVCAR-5
testProtocol: NCI tumour cell line growth inhibition, 48 h
The source made the active and inactive calls. No stated cut-off is given here; in the data, active = GI50 up to about 1.1 µM and inactive = higher.

Example entries and their recorded answers appear below.
COc1cc([C@@H]2c3cc4c(cc3[C@@H](NC(=O)c3cccc(F)c3)C3COC(=O)[C@@H]32)OCO4)cc(OC)c1O (some centres undefined)	2.21 µM (inactive)
COc1cc(C2C(C(=O)Nc3cc(F)c(F)cc3F)=C(C)NC(C)=C2C(=O)Nc2cc(F)c(F)cc2F)ccc1O	17.4 µM (inactive)
Cc1ccc(C)c(NC(=O)C(Cc2c[nH]c3ccccc23)NC(=O)OCc2ccccc2)c1 (centres undefined)	25.6 µM (inactive)

Lab book: GI50 of COc1ccccc1NC(=O)O/N=C(/Cl)C(C)C noted as 16.3 µM (inactive)

Sure, the documented GI50 for O=C1OC(c2ccccc2)C2CC3CC4(CCC3CN12)OCCO4 (centres undefined) is > 100 µM (inactive)

// CC1(C)N=C(N)N=C(N)N1c1ccc(Cl)cc1 : GI50 value = 15 µM (inactive)

---

Tested on: 786-0
testProtocol: NCI tumour cell line growth inhibition, 48 h
Active and inactive are the calls of the source. No stated cut-off is given here; in the data, active = GI50 up to about 1.1 µM and inactive = higher.
Pick one: active, inactive

// below: answered molecules
COc1ccc(C2C3=C(COC3=O)Oc3cc4c(cc32)OCO4)cc1OC (centres undefined)	active
CC1(C)CCc2c(cc3c(c2O)CCC(C)(C)O3)O1	inactive
Cc1ccc(OC2CC(n3cnc4ncnc(Cl)c43)OC2Oc2ccc(C)cc2)cc1 (centres undefined)	inactive
Cc1ccc(NC(=O)CC2Sc3ccccc3NC2=O)c(C)c1 (centres undefined)	inactive
C/C(CC(=O)Nc1ccc(Cl)c(Cl)c1)=N/NC(=O)C[n+]1ccccc1	inactive

# evaluate next
Record request — test call for CC1C(c2ccccc2)OP(=O)(OC(C#N)c2ccccc2)N1C (centres undefined)
inactive

---

Tested on: IGROV-1
testProtocol: NCI tumour cell line growth inhibition, 48 h
Activity calls are given as the source filed them. No stated cut-off is given here; in the data, active = GI50 up to about 1.1 µM and inactive = higher.
property: GI50

// below: answered compounds
CC(C)(C)[Si](C)(C)OCC1CCC(n2cnc3c(N)ncnc32)O1 (stereo unspecified)	53.8 µM (inactive)
CCOC(=O)C1(Cc2ccccc2)CCN(C(=O)c2ccccc2)C2C1C2(Cl)Cl (stereo unspecified)	31.2 µM (inactive)
CCOP1(=O)C=C(Sc2ccc([N+](=O)[O-])cc2[N+](=O)[O-])C(C)(C)O1 (stereo unspecified)	16.5 µM (inactive)
CC(O)CNC(=O)Nc1c(C(F)(F)F)cc(-c2ccccc2)[nH]c1=O (stereo unspecified)	> 100 µM (inactive)

For record COC(=O)c1c(OC)cccc1C(=O)O the listed GI50 is > 100 µM (inactive)

compound Cc1ccc(NC(=O)c2cccc([N+](=O)[O-])c2O)c([N+](=O)[O-])c1 , GI50 observed: 20.9 µM (inactive)
